TARGET_OR_TEST_SYSTEM: Solute carrier family 2, facilitated glucose transporter member 1 (Homo sapiens)
PROTOCOL_DESCRIPTION: ST_JUDE_LEISH: Cytotoxicity at 2uM final concentration against transgenic Leishmania Mexicana promastigotes LmGLUT1 that are glucose transport deficient and complemented with the human glucose transporter GLUT1. Activity is measured by DNA content using SYBR green in vitro
Format: functional
Recorded measurements of inhibition, one per entry
Provide the reading as a plain figure in %.

A selection of reference data follows.
CN1CCC(C(=O)N(Cc2ccc(-c3ccc(CNCCc4ccccc4)cn3)cc2)C2CCN(Cc3ccccc3)CC2)CC1 : 0.71
COc1cc2s/c(=N\C(=O)c3cccc([N+](=O)[O-])c3)n(C)c2cc1OC : 9.71
CC[C@H](NC(=O)c1c(CN2CCC(N3CCCCC3)CC2)c(-c2ccccc2)nc2cc(O)ccc12)c1ccccc1 : -0.16
CCc1ccccc1N1CCN(CCCCNC(=O)c2ccc(NC(=O)c3ccc(Cl)cc3)cc2)CC1 : 2.51
O=C(Cc1cccc(OCCCN(Cc2cccc(C(F)(F)F)c2Cl)CC(c2ccccc2)c2ccccc2)c1)NCc1ccco1 : -1.28

Incoming: Requested read-out: inhibition. Entry: O=C(Nc1ccc(Cl)cc1F)NC1CCN(CCCCCNC(=O)C2CC2c2ccc(Cl)c(Cl)c2)CC1 (centres undefined)
Outgoing: 1.08

* * *

TARGET_OR_TEST_SYSTEM: Hexose transporter 1 (Plasmodium falciparum) (UniProt O97467)
PROTOCOL_DESCRIPTION: ST_JUDE_LEISH: Cytotoxicity at 2uM final concentration against transgenic Leishmania Mexicana promastigotes LmPfHT that are glucose transport deficient and complemented with the Plasmodium falciparum hexose transporter. Activity is measured by DNA content using SYBR green in vitro
Format: functional
inhibition by entry:
// return numeric value only (unit: %, not printed)

# annotated cases, reported inhibition shown
O=C(Nc1cc(F)cc(F)c1)N1CCOC(CCN2CCC3(CCc4ccccc43)CC2)(c2ccc(Cl)c(Cl)c2)C1 (centres undefined) : 3.01
O=C1OC(c2ccccc2)(c2ccccc2)CN1C1CCN(Cc2ccc(O)c(Cl)c2)C1 (centres undefined) : 1.04
CCCCCCCN1CC[C@@H](C[C@H](N)Cc2ccnc3ccc(OC)cc23)[C@@H](CC)C1 : -1.97
CCCCC(CC)C(=O)C(NC(=O)[C@H](CSC(c1ccccc1)(c1ccccc1)c1ccccc1)NC(=O)OC(C)(C)C)C(=O)OC (some centres undefined) : 3.76
NCCCCc1c(-c2ccc(Cl)c(Cl)c2)[nH]c2ccc(Cl)cc12 : -1.68

Incoming: # inhibition lookup, item COc1cc(NC(=O)N2CCc3ccc(OCCC4CCCN4C)cc32)cc(C(F)(F)F)c1 (centres undefined)
Outgoing: 0.15

Incoming: Try this compound too: COc1ccc(CC(=O)Nc2ccc(Nc3nc(C)cc(N4CCCC4)n3)cc2)cc1
Outgoing: 51.5

Incoming: Consider next the compound CN1CCN(c2ccnc3ccc(NC(=O)Nc4ccc5c(c4)CCCC5=O)cc23)CC1 in the same way.
Outgoing: 1.11

Incoming: Moving on to the next compound: CCCOc1ccc(CCNCCCCNCCc2ccc(OCCC)c3ccccc23)c2ccccc12
Outgoing: 99.1

* * *

TARGET_OR_TEST_SYSTEM: Hexose transporter 1 (Plasmodium falciparum) (UniProt O97467)
PROTOCOL_DESCRIPTION: ST_JUDE_LEISH: Cytotoxicity at 2uM final concentration against transgenic Leishmania Mexicana promastigotes LmPfHT that are glucose transport deficient and complemented with the Plasmodium falciparum hexose transporter. Activity is measured by DNA content using SYBR green in vitro
Format: functional
QUANTITY_KIND: inhibition (%)
Give a bare numeral; the unit % is implied.

Incoming: Given the entry CCN(CC)CCCNc1ncc2c(-c3ccc(NC(=O)Nc4cc(C(F)(F)F)ccc4F)c(F)c3)nn(C)c2n1 , report its measured inhibition.
Outgoing: -0.41

Incoming: Also check c1cc(CN2CCC(CCN3CCCCC3)CC2)cc(-c2csc(-c3nc4ccccc4[nH]3)c2)c1
Outgoing: 8.75

Incoming: Subsequent entry: CCc1cc(-c2onc(C)c2-c2cc3ccccc3o2)c(O)cc1OC
Outgoing: -1.2

Incoming: What do we get for Cc1c(-c2cccc(NC(=O)C(C)(C)Oc3ccc(Cl)cc3)c2)nc2ncccn12 ?
Outgoing: -1.86

Incoming: Please answer likewise for Cc1ccc(NC(=O)c2ccc(N3CCC(c4ccccc4C)CC3)nc2)cc1
Outgoing: 9.58

Incoming: Next molecule: c1ccc(CNc2nc(NCCN3CCCCC3)nc3ccccc23)cc1
Outgoing: 11.1

* * *

Listed here: items and their measured inhibition.
TARGET_OR_TEST_SYSTEM: Glucose transporter (Leishmania mexicana)
PROTOCOL_DESCRIPTION: ST_JUDE_LEISH: Cytotoxicity at 2uM final concentration against transgenic Leishmania Mexicana promastigotes LmGT2 that are glucose transport deficient and complemented with the L. Mexicana glucose transporter 2. Activity is measured by DNA content using SYBR green in vitro
Format: functional
Response body: numeric value in %, unit text excluded.

Completed entries (count: 5):
O=C(/C=C/c1ccc(Cl)c(Cl)c1)NCCCCCN1CCCN(C(=S)Nc2cccc(Cl)c2)CC1 : 0.17
COc1cccc2c(NN=Cc3ccc(Cl)cc3)ccnc12 : 2.21
O=C(Nc1ccc(Cl)c(Cl)c1)Nc1ccccc1N1CCNCC1 : 1.04
CCC(ON1C(N)=NC(N)=NC1(C)C)c1ccccc1 (stereo not given) : -3.19
Cc1ccc(Nc2nc(C)cc(Nc3cccc(NS(C)(=O)=O)c3)n2)cc1 : 9.23

Incoming: Item O=C(Nc1ccc(O)c(-c2nc3ccccc3[nH]2)c1)c1ccc([N+](=O)[O-])cc1 with Glucose transporter (Leishmania mexicana) - inhibition?
Outgoing: 1.31

Incoming: Quick one: Cc1cc2nc(-c3ccc(OCC(=O)NCc4ccc(C(C)(C)C)cc4)cc3)[nH]c2cc1C
Outgoing: 6.35

Incoming: Proceed to Cc1cc(N[C@@H](Cc2ccccc2)C(=O)Nc2ccccc2)nc(NCCc2cccs2)n1
Outgoing: 1

Incoming: Entry to check: CC(=O)Nc1ccc(CN2CCCN(c3cc(NC(=O)c4cccc(C)c4)ccn3)CC2)cc1
Outgoing: 10.9

Incoming: Please answer likewise for COc1cc(F)c2ncc(Cl)c(C(O)CN3CCC(NC(=O)c4ccc5c(n4)NC(=O)CO5)CC3)c2c1 (stereo not given)
Outgoing: -1.35

* * *

A collection of compounds and their measured inhibition
TARGET_OR_TEST_SYSTEM: Hexose transporter 1 (Plasmodium falciparum) (UniProt O97467)
PROTOCOL_DESCRIPTION: ST_JUDE_LEISH: Cytotoxicity at 2uM final concentration against transgenic Leishmania Mexicana promastigotes LmPfHT that are glucose transport deficient and complemented with the Plasmodium falciparum hexose transporter. Activity is measured by DNA content using SYBR green in vitro
Format: functional

CC(=O)Nc1nc(C(=O)Nc2cccc(-c3cccc(-c4nc5ccccc5[nH]4)c3)c2)cs1 : 15.6%

Incoming: Under Hexose transporter 1 (Plasmodium falciparum) (UniProt O97467): inhibition value of CC1CCc2sc(-c3nnc(SC(C)C(=O)NC4CC4)o3)cc2C1 (centres undefined) ?
Outgoing: 1.65%

Incoming: What do we get for CCOC(=O)N1CCC(NC(=O)c2ccc(C(C)(C)C)cc2OC)CC1 ?
Outgoing: 3.5%

Incoming: Same read-out for O=C(NCCCCN1CCC(c2ccc3c(c2OCC2COCO2)CCCC3)CC1)c1ccc(-c2ccc(C(F)(F)F)cc2)cc1 (centres undefined) ?
Outgoing: 1.19%

Incoming: Now consider CCN(CC)CCCN(C(=O)Nc1c(Cl)cncc1Cl)c1nc(-c2ccc(F)cc2)cs1 .
Outgoing: 2.42%

* * *

TARGET_OR_TEST_SYSTEM: Solute carrier family 2, facilitated glucose transporter member 1 (Homo sapiens) (UniProt P11166)
Sequence (P11166 whole entry): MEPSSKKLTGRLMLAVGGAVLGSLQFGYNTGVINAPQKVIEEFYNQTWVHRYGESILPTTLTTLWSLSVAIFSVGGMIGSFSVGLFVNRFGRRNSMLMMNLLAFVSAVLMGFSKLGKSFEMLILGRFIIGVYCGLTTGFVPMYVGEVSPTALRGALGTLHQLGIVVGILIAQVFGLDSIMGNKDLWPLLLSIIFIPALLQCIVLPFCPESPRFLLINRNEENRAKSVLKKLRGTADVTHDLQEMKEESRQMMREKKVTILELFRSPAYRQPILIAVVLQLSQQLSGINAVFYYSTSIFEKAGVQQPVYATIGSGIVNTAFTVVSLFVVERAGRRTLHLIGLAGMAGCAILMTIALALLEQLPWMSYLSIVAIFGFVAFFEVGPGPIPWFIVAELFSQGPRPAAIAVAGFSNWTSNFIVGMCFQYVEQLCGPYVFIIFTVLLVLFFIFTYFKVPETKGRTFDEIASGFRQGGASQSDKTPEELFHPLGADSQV
PROTOCOL_DESCRIPTION: ST_JUDE_LEISH: Cytotoxicity at 2uM final concentration against transgenic Leishmania Mexicana promastigotes LmGLUT1 that are glucose transport deficient and complemented with the human glucose transporter GLUT1. Activity is measured by DNA content using SYBR green in vitro
Type: functional
QUANTITY_KIND: inhibition (%)
Report the figure in % without appending any unit label.

Here is how some compounds turned out for inhibition.
CCN(CCS(C)(=O)=O)Cc1ccc(-c2ccc3ncnc(Nc4ccc(OCc5cccc(F)c5)c(Cl)c4)c3c2)o1 : 2.48
Nc1ccc2nc(C=Cc3ccc(Cl)cc3)[nH]c2c1 : 3.56

Incoming: So what does the record say about inhibition for CN1CC[C@@H](Oc2cc(C(=O)NCc3ccc(Cl)c(Cl)c3)ccc2C(F)(F)F)C1 ?
Outgoing: -0.85

Incoming: Do the same for CN1CC=C(c2csc3ccc(NC(=O)Nc4ccc(-c5ccncc5)c5ccccc45)cc23)CC1 please
Outgoing: 3.83

Incoming: Moving on to Oc1ccc2[nH]c(-c3ccc(F)cc3F)nc2c1CN1CCC(O)(c2ccccc2)CC1
Outgoing: -0.28

* * *

TARGET_OR_TEST_SYSTEM: Glucose transporter (Leishmania mexicana)
PROTOCOL_DESCRIPTION: ST_JUDE_LEISH: Cytotoxicity at 2uM final concentration against transgenic Leishmania Mexicana promastigotes LmGT2 that are glucose transport deficient and complemented with the L. Mexicana glucose transporter 2. Activity is measured by DNA content using SYBR green in vitro
Type: functional
# inhibition annotations
Kindly provide the numeric value in % only, without the unit symbol.

COc1cc(NC(=O)/C=C/c2ccccc2OC(F)(F)F)cc(OCCN2CCCCC2)c1 : 1.67
Oc1cccc(Nc2nc(NCc3ccccc3)c3ccccc3n2)c1 : 11.8
CN1CCCc2ccc(NC(=O)c3cc(-c4ccc(Cl)cc4)cs3)cc2C1 : 1.2
CN1CCc2cc(NC(=O)c3cc4ccccc4s3)cc(-c3ccccc3)c2CC1 : 95.9

Incoming: If you can, please state the reported inhibition value of O=C(/C=C/c1ccc(Cl)c(Cl)c1)NCCCCCCN1CCCN(C(=O)Nc2ccc(Cl)c(C(F)(F)F)c2)CC1 .
Outgoing: -1.22

Incoming: Input CC(C)OC(=O)c1ccc(NC(=O)N[C@@H](Cc2ccc(O)cc2)C(=O)NC2CCC(CCN3C4CCC3c3ccccc34)CC2)cc1 (some centres undefined)
Outgoing: 2.46

Incoming: Same question, Cc1cc(F)ccc1-c1nc(NCCCNCCc2ccccc2)nc2c1ccc(=O)n2-c1c(F)cccc1F this time
Outgoing: 0.76

Incoming: Here is the next molecule: O=C(NCCCN1CCCC1=O)NCc1ccccc1
Outgoing: -0.11

Incoming: Same lookup for CC(CCCCOCCc1ccccc1)NCC(O)c1cc(Cl)c(N)c(Cl)c1 (centres undefined) , please.
Outgoing: 2.18
